experiment: NCI Yeast Anticancer Drug Screen. Data for the mec2-1 strain (AID 157); details: S. cerevisiae mec2-1 strain, at 50.0 µM
About 79,000 compounds went through this panel and 15% of them were active in at least one assay; those are over-represented in the sample as a whole. Calls of active or inactive are those of the source. Cut-off read from the data, not from the text of the source: active = growth inhibition above about 70%; inactive = the rest.
Outcomes: yes (1) (active), no (0) (inactive)

>  <Compound>
NC(Cc1ccc(N(CCCl)Cc2ccccc2)cc1)C(=O)O (centres undefined)

>  <Label Class>
no (0)

$$$$
>  <Compound>
CCC(C(=O)NC1CN2CCC1CC2)c1ccccc1 (centres undefined)

>  <Label Class>
no (0)

$$$$
>  <Compound>
CC1(C)SC2C(NC(=O)COc3ccccc3)C(=O)N2C1C(=O)O (centres undefined) (tested in a mixture with another compound)

>  <Label Class>
no (0)

$$$$
>  <Compound>
COC(=O)c1ccccc1NC(=O)C(=O)CC(=O)CC(c1ccccc1)c1c(O)c2ccccc2oc1=O (centres undefined)

>  <Label Class>
no (0)

$$$$
>  <Compound>
O=C1C(=O)C(Br)(Br)C(Br)=C1Br

>  <Label Class>
yes (1)

$$$$
>  <Compound>
CN(C)CCO

>  <Label Class>
no (0)

$$$$
>  <Compound>
Cc1cc(CCN)c(C)c2c1oc1ccccc12

>  <Label Class>
yes (1)

$$$$
>  <Compound>
CC(=O)CC(C)=O.CC(=O)CC(C)=O.[Mn]

>  <Label Class>
no (0)

$$$$
>  <Compound>
Cc1ccc(-n2cnc3c(N(CCCl)CCCl)ncnc32)cc1

>  <Label Class>
no (0)

$$$$
>  <Compound>
[CH3][Sn]([CH3])([n]1cnc2ccccc21)[n]1cnc2ccccc21

>  <Label Class>
no (0)

$$$$
>  <Compound>
CN1CCOC12CCC1(C)C(CCC3C4CCC(O)C4(C)CCC31)C2 (centres undefined)

>  <Label Class>
no (0)

$$$$
>  <Compound>
CC12CCC3C(CCC4=CC(=O)CCC43C=O)C1CCC2Oc1ccccc1 (centres undefined)

>  <Label Class>
no (0)

$$$$
>  <Compound>
COc1cc(CC[N+](C)(C)C)cc(OC)c1OC

>  <Label Class>
no (0)

$$$$
>  <Compound>
CCCN(CCC)c1c([N+](=O)[O-])cc(C(=O)N(CC)CC)cc1[N+](=O)[O-]

>  <Label Class>
no (0)

$$$$
>  <Compound>
Nc1nnc[se]1

>  <Label Class>
no (0)

$$$$
>  <Compound>
CC(=O)C1(c2ccccc2)CCCN(C)CC1 (centres undefined)

>  <Label Class>
no (0)

$$$$
>  <Compound>
O=C(O)C(F)(F)F.[Ag]

>  <Label Class>
yes (1)

$$$$
>  <Compound>
CC(CC(C)(C)[N-]CC[O-])=NCCO.O=[N+]([O-])O.[Cu+2]

>  <Label Class>
no (0)

$$$$
>  <Compound>
CCOC(=O)C(CCc1ccc(N(CCCl)CCCl)cc1)(NC(C)=O)C(=O)OCC

>  <Label Class>
no (0)

$$$$
>  <Compound>
c1ccc(C2=NCN3CC23c2ccccc2)cc1 (centres undefined)

>  <Label Class>
no (0)

$$$$
>  <Compound>
CC(C)CC(NC=O)C(=O)NC(Cc1ccccc1)NC(=O)CNC(=O)C(C)NC(=O)C(N)Cc1ccc(O)cc1 (centres undefined)

>  <Label Class>
no (0)

$$$$
>  <Compound>
Cc1nnnn1C

>  <Label Class>
no (0)

$$$$
>  <Compound>
Oc1c(I)cc(I)cc1I

>  <Label Class>
no (0)

$$$$
>  <Compound>
COc1ccccc1NC1=NCC(C)S1 (centres undefined)

>  <Label Class>
no (0)

$$$$
>  <Compound>
O=S1(=O)c2ccccc2-c2ccccc21

>  <Label Class>
no (0)

$$$$
>  <Compound>
C[CH2][Sn](/[CH]=C/C=C/OC)([CH2]C)[CH2]C

>  <Label Class>
no (0)

$$$$
>  <Compound>
CC1=CC(=O)C=CC1=Nc1ccc(N(CCCl)CCCl)cc1

>  <Label Class>
no (0)

$$$$
>  <Compound>
CCOC(=O)C(Cl)Cl

>  <Label Class>
no (0)

$$$$
>  <Compound>
Cc1nc2cccc(F)c2c(=O)n1-c1nnc(C2CC2)s1

>  <Label Class>
no (0)

$$$$
>  <Compound>
O=C(NC(=S)N1CC1)c1ccccc1

>  <Label Class>
no (0)

$$$$
>  <Compound>
Cc1nccn1-c1ccc(Cl)cc1N=Cc1ccc(N(CCCl)CCCl)cc1Cl

>  <Label Class>
no (0)

$$$$
>  <Compound>
COc1cc(C2c3[nH]c4ccccc4c3[C@@H](Nc3ccc(C#N)cc3)[C@H]3COC(=O)N23)cc(OC)c1O (some centres undefined)

>  <Label Class>
yes (1)

$$$$
>  <Compound>
C1=[N+]2CCCC2Cc2ccc3ccccc3c21 (centres undefined)

>  <Label Class>
no (0)

$$$$
>  <Compound>
Clc1cc[c]([Pb]([Cl])([Cl])[c]2ccc(Cl)cc2)cc1

>  <Label Class>
no (0)

$$$$
>  <Compound>
NNC(=O)c1ccc(N)cc1

>  <Label Class>
no (0)

$$$$
>  <Compound>
CNC(=S)P(c1ccccc1)c1ccccc1

>  <Label Class>
no (0)

$$$$
>  <Compound>
C1CN([PH+](N2CC2)N2CC2)CCO1.[C-]#[O+].[C-]#[O+].[C-]#[O+].[C-]#[O+].[C-]#[O+].[Mo]

>  <Label Class>
no (0)

$$$$
>  <Compound>
CC(C)CCCC(C)C1CCC2C3CC=C4CC(OC(=O)CN5CC5)CCC4(C)C3CCC12C (centres undefined)

>  <Label Class>
no (0)

$$$$
>  <Compound>
C[CH2][Pb]([CH2]C)([CH2]C)[O]C(=O)COc1ccc(Cl)cc1Cl

>  <Label Class>
yes (1)

$$$$
>  <Compound>
Nc1cc(N)c([N+](=O)[O-])cc1[N+](=O)[O-]

>  <Label Class>
no (0)

$$$$
>  <Compound>
Nc1ccc([As](O)O)c(C(=O)O)c1

>  <Label Class>
no (0)

$$$$
>  <Compound>
O=P1(C(Cl)Cl)OCCCO1

>  <Label Class>
no (0)

$$$$
>  <Compound>
C[C@]12CC[C@H](O)C[C@@H]1CC[C@@H]1[C@@H]2CC[C@]2(C)C(=O)/C(=C/O)C[C@@H]12

>  <Label Class>
yes (1)

$$$$
>  <Compound>
CC12CCC(O)CC1CCC1C2CCC2(C)C(C3=CC(=O)OC3)CCC12 (centres undefined)

>  <Label Class>
no (0)

$$$$

The measured values listed here are drawn from PubChem BioAssay (NCI).
